Measured pKa accompanies every entry in the list below.
Test protocol: pKa measurement of the cationic lipid (TNS fluorescence vs pH)
Assay type: physicochemical
Experimental parameters: probe TNS (fluorescent probe), Table 4; pKa of the cationic lipid of formula (I)
Property measured: pKa

>>> result("CCCCCCCC(=O)OCCCCCCCCCCOc1cc(CN(CC)CC)cc(OCCCCCCCCCCOC(=O)CCCCCCC)c1OCCCCCCCCCCOC(=O)CCCCCCC [Example 100]")
6.17
>>> result("CCCCCCCCOC(=O)CCCCCCCC(=O)OCCCOc1cc(CN(C)C)cc(OCCCOC(=O)CCCCCCCC(=O)OCCCCCCCC)c1 [Example 98]")
5.94
>>> result("CCCCC/C=C\\C/C=C\\CCCCCCCCOc1cc(COC(=O)CCN(C)C)cc(OCCCCCCCC/C=C\\C/C=C\\CCCCC)n1 [Example 31]")
6.01
>>> result("CCCCC/C=C\\C/C=C\\CCCCCCCCOC(=O)CCC(=O)OCc1cc(COC(=O)CCC(=O)OCCCCCCCC/C=C\\C/C=C\\CCCCC)cc(CN(C)C)c1 [Example 77]")
6.09

###

Measured Size (nm) accompanies every entry in the list below.
Test protocol: Particle size of the lipid nanoparticle (dynamic light scattering, Malvern Zetasizer)
Format: physicochemical
Experimental parameters: Table 4; FVII siRNA LNP; Chol/DSPC/stealth lipid S010, molar ratio 45/44/9/2; Z-average
Property measured: Size (nm)

>>> readout_number("CCCCCCCC/C=C\\CCCCCCCC(=O)OCCCCOc1cc(CN(C)C)cc(OCCCCOC(=O)CCCCCCC/C=C\\CCCCCCCC)c1 [Example 60]")
95.55
>>> readout_number("CCCCC/C=C\\C/C=C\\CCCCCCCC(=O)OCCCCCCCCOc1cc(CN(C)C)cc(OCCCCCCCCOC(=O)CCCCCCC/C=C\\C/C=C\\CCCCC)c1 [Example 46]")
102.4
>>> readout_number("CCCCC/C=C\\C/C=C\\CCCCCCCC(=O)OCc1cc(COC(=O)CCCCCCC/C=C\\C/C=C\\CCCCC)cc(CN(C)C)c1 [Example 33]")
79.15
>>> readout_number("CCCCCCCCCC(=O)OCCCCCC(=O)OCc1cc(COC(=O)CCCCCOC(=O)CCCCCCCCC)cc(CN(C)C)c1 [Example 88]")
152.4
>>> readout_number("CC/C=C\\C/C=C\\C/C=C\\CCCCCCCC(=O)OCCCCOc1cc(CN(C)C)cc(OCCCCOC(=O)CCCCCCC/C=C\\C/C=C\\C/C=C\\CC)c1 [Example 62]")
102.5
